testName: Measurement of content ratio of compound represented by Formula (III) contained in crystal (Test Example 1)
Type: physicochemical
conditionDescription: crystal as produced
Entries and their Content ratio of compound represented by Formula (III) in the obtained crystal
parameter: Content ratio of compound represented by Formula (III) in the obtained crystal (ppm)

molecule: C[C@@H](Cn1c(=O)[nH]/c(=N\c2ccc(Oc3ccccn3)cc2)n(Cc2ccc(Cl)cc2)c1=O)C(=O)O [Example 3]
valueUnit: ppm
obsValue: 1.5
//
molecule: C[C@@H](Cn1c(=O)[nH]/c(=N\c2ccc(Oc3ccccn3)cc2)n(Cc2ccc(Cl)cc2)c1=O)C(=O)O [Example 6]
valueUnit: ppm
obsValue: 1.0
//
molecule: C[C@@H](Cn1c(=O)[nH]/c(=N\c2ccc(Oc3ccccn3)cc2)n(Cc2ccc(Cl)cc2)c1=O)C(=O)O [Example 4]
valueUnit: ppm
obsValue: 1.30
//
molecule: C[C@@H](Cn1c(=O)[nH]/c(=N\c2ccc(Oc3ccccn3)cc2)n(Cc2ccc(Cl)cc2)c1=O)C(=O)O [Example 2]
valueUnit: ppm
obsValue: 1.0
